The values you see were collected from patent EP1172442A1.

system: VDR (chicken small intestine receptor); assay: Binding ability to vitamin D receptor (VDR), radio receptor assay (RRA), competition with 3H-1,25(OH)2D3; conditions: relative value of B/B0 50% value, 1,25(OH)2D3 taken to be 100; 4°C for 3 hours
Measured Property: Binding ability to VDR

[
  {
    "Molecule": "C=C1CC[C@H](O)C(F)(F)/C1=C/C=C1\\CCC[C@]2(C)[C@@H]([C@H](C)CCC(O)C(C)C)CC[C@@H]12 (some centres unmarked) [Example 5(1), 4,4-difluoro-24-hydroxyvitamin D3]",
    "Measured Property": "Binding ability to VDR",
    "Result": 81.860
  },
  {
    "Molecule": "C=C1/C(=C\\C=C2/CCC[C@]3(C)[C@@H]([C@H](C)CCCC(C)CO)CC[C@@H]23)C[C@@H](O)C[C@@H]1O (stereo partly drawn) [Example 2, 1α,26-dihydroxyvitamin D3]",
    "Measured Property": "Binding ability to VDR",
    "Result": 107.557
  },
  {
    "Molecule": "C[C@H](CCCC(C)(C)O)[C@H]1CC[C@H]2/C(=C/C=C3/C[C@@H](O)C[C@H](O)/C3=C\\F)CCC[C@]12C [Example 4(2), 19-fluoro-1α,25-dihydroxyvitamin D3]",
    "Measured Property": "Binding ability to VDR",
    "Result": 62.386
  },
  {
    "Molecule": "C=C1/C(=C\\C=C2/CCC[C@]3(C)[C@@H]([C@H](C)CCCC(C)(C)O)CC[C@@H]23)C(F)(F)[C@@H](O)C[C@@H]1O [Example 6(2), 4,4-difluoro-1α,25-dihydroxyvitamin D3]",
    "Measured Property": "Binding ability to VDR",
    "Result": 92.716
  },
  {
    "Molecule": "CC(C)C(O)CC[C@@H](C)[C@H]1CC[C@H]2/C(=C/C=C3/C[C@@H](O)C[C@H](O)/C3=C\\F)CCC[C@]12C (stereo partly drawn) [Example 4(1), 19-fluoro-1α,24-dihydroxyvitamin D3]",
    "Measured Property": "Binding ability to VDR",
    "Result": 72.878
  },
  {
    "Molecule": "C=C1CC[C@H](O)C(F)(F)/C1=C/C=C1\\CCC[C@]2(C)[C@@H]([C@H](C)CCCC(C)CO)CC[C@@H]12 (some centres unmarked) [Example 5(3), 4,4-Difluoro-26-hydroxyvitamin D3]",
    "Measured Property": "Binding ability to VDR",
    "Result": 34.067
  },
  {
    "Molecule": "C=C1C[C@@H](O)[C@H](O)C/C1=C/C=C1\\CCC[C@]2(C)[C@@H]([C@H](C)CCCC(C)(C)O)CC[C@@H]12 [Example 1(1), 2α,25-dihydroxyvitamin D3]",
    "Measured Property": "Binding ability to VDR",
    "Result": 32.480
  },
  {
    "Molecule": "CC(CO)CCC[C@@H](C)[C@H]1CC[C@H]2/C(=C/C=C3/C[C@@H](O)C[C@H](O)/C3=C\\F)CCC[C@]12C (stereo partly drawn) [Example 4(3), 19-fluoro-1α,26-dihydroxyvitamin D3]",
    "Measured Property": "Binding ability to VDR",
    "Result": 29.129
  }
]
